// provenance: patent US20180057604A1

target: BACE1 in primary mouse cortical neurons (mouse, UniProt P56818 46-501); experiment: cell-based or functional assay
Sequence (P56818 46-501): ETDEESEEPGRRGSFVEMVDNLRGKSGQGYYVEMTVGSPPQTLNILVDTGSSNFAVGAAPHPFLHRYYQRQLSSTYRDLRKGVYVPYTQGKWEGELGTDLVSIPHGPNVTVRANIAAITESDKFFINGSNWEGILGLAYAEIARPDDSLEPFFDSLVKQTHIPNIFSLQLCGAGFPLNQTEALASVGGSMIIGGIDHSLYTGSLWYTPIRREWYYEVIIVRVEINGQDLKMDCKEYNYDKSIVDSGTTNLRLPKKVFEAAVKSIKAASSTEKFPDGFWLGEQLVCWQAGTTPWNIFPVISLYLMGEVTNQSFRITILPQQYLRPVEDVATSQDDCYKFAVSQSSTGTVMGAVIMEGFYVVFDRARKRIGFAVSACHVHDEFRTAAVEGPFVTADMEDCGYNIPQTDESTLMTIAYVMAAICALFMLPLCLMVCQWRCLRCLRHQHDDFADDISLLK
For each of the binders below, state its maximal % inhibition of Abeta x-40.
Give bare numbers, in %.

binder	units symbol	maximal % inhibition of Abeta x-40
6309 (antibody, V domains shown, anti-BACE1 IgG) VH: QLQLQESGPGLVKPSETLSLTCTVSGGSISWSSYYWSWIRQPPGKGLEWIGSIYRSGRTYYNPSLKSRVTISVDTSKNQFSLKLSSVTAADTAVYYCARVGHGINYFDLWGRGTLVTVSS VL: EIVLTQSPATLSLSPGERATLSCRASQSVSSYLAWYQQKPGQAPRLLIYDASNRATGIPARFSGSGSGTDFTLTISSLEPEDFAVYYCQQSITWPPRTFGGGTKVEIK	%	60

Turning now to a further record.
Kindly indicate its recorded maximal % inhibition of Abeta x-40. Item: 6300 (antibody, V domains shown, anti-BACE1 IgG) VH: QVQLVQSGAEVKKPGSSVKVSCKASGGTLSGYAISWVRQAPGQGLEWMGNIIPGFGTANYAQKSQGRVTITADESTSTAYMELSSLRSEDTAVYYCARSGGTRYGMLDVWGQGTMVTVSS VL: EIVLTQSPATLSVSPGERATLSCRASQSVGSNLAWYQQKPGQAPRLLIYGASTRATGIPARFSGSGSGTEFTLTISSLQSEDFAVYYCQQSFLWPPRTFGGGTKVEIK
71
